The following compounds are listed with their measured % inhibition ApPOL 90' values.
Molecular target: P. falciparum apicoplast DNA polymerase (Pf-apPOL) (Plasmodium falciparum)
Sequence (Q8ILY1 entry or part of it): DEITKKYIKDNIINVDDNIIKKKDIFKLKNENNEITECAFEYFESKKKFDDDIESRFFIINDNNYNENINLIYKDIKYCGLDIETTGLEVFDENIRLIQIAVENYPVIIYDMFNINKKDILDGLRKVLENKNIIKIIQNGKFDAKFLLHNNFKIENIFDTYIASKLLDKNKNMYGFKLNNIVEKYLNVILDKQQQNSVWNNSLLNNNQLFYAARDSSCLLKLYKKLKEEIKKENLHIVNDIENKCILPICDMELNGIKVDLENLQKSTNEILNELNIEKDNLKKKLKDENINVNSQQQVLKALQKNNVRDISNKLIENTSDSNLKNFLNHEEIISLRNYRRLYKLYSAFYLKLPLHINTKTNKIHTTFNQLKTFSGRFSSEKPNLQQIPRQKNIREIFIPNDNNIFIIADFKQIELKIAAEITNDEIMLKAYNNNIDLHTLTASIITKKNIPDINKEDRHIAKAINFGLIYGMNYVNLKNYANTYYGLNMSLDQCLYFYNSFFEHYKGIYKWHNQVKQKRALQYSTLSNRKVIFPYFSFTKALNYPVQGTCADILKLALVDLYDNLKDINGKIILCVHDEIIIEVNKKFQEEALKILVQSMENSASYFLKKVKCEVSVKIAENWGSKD
Experiment: Fluorescence-based high-throughput DNA polymerase assay (molecular beacon), primary screen and dose-response;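 also: test concentration in µM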
Format: biochemical
Conditions: DRC-2; 90'; concentration 20
Express the result in % but write the number alone.

# Compound, Quantity Unit, % inhibition ApPOL 90'
measured = [
    ("CCCc1ccc(Oc2coc3cc(OC)ccc3c2=O)cc1 [KU0193249]", "%", 22),
]

## Task Recorded % inhibition ApPOL 90' for CN(C)S(=O)(=O)Oc1ccc(-c2noc(-c3ccc(Oc4cc(Cl)cc(Cl)c4)o3)n2)cc1 [KU0263859] , please?
## Result 56

## Task # lookup: % inhibition ApPOL 90' of O=C(Nc1cccc(C(=O)Nc2ccc(S(=O)(=O)[O-])c3cc(S(=O)(=O)[O-])cc(S(=O)(=O)[O-])c23)c1)Nc1cccc(C(=O)Nc2ccc(S(=O)(=O)[O-])c3cc(S(=O)(=O)[O-])cc(S(=O)(=O)[O-])c23)c1.[Na+].[Na+].[Na+].[Na+].[Na+].[Na+] [Molecule 39]
## Result 56
